Values from ChEMBL document CHEMBL4028801

method-description: AUC in human at 1 to 40 mg, po QD after 24 hrs
Type: ADME, organism-based
measurement-context: in vivo
measured-metric: AUC at 24 h (µM·h)
Hi! Could you send only the number? It should be in µM·h, unit omitted.

Q. Tell us which AUC at 24 h value is on record for Cl.OCCN1CCN(CCCN2c3ccccc3Sc3ccc(C(F)(F)F)cc32)CC1
A. 0.03

* * *

method-description: AUC in human at 0.2 mg, po QID after 6 hrs
Type: ADME, organism-based
Parameters: time < 6 hr, dose 0.2 mg, route oral
measurement-context: in vivo
measured-metric: AUC at 6 h (nM·h)
State the answer as a number, implicitly in nM·h.

Q. Give the reported AUC at 6 h for this molecule. CCCC[C@](C)(O)C/C=C/[C@H]1[C@H](O)CC(=O)[C@@H]1CCCCCCC(=O)OC
A. 1

* * *

IC50 values, listed per item
study-system: ATP-binding cassette sub-family C member 4 (Homo sapiens, UniProt O15439)
method-description: Inhibition of human MRP4 overexpressed in Sf9 cell membrane vesicles assessed as uptake of [3H]-estradiol-17beta-D-glucuronide in presence of ATP and GSH measured after 20 mins by membrane vesicle transport assay
Respond with the bare value in µM.

>  <compound>
Cc1ccc(Nc2nccc(N(C)c3ccc4c(C)n(C)nc4c3)n2)cc1S(N)(=O)=O

>  <study-system>
ATP-binding cassette sub-family C member 4 (Homo sapiens, UniProt O15439)

>  <reported-value>
8.1

$$$$
>  <compound>
CCc1ccc(CCOc2ccc(CC3SC(=O)NC3=O)cc2)nc1 (configuration not stated)

>  <study-system>
ATP-binding cassette sub-family C member 4 (Homo sapiens, UniProt O15439)

>  <reported-value>
49.5

$$$$

Field: next compound
Q. GET IC50 where system = ATP-binding cassette sub-family C member 4 (Homo sapiens, UniProt O15439) and item = CCOc1ccc(/C=C2\NCCc3cc(OCC)c(OCC)cc32)cc1OCC
A. 24.5

* * *

method-description: AUC in human at 200 mg, po QD for 1 to 2 weeks after 24 hrs
Assay type: ADME, organism-based
Set-up: time < 24 hr, dose 200 mg, route oral
measurement-context: in vivo
measured-metric: AUC at 24 h (µM·h)
# output: bare number, implied unit µM·h

Q. Report measured AUC at 24 h; entry is CCC(C)n1ncn(-c2ccc(N3CCN(c4ccc(OCC5COC(Cn6cncn6)(c6ccc(Cl)cc6Cl)O5)cc4)CC3)cc2)c1=O (stereo unspecified)
A. 8.69

* * *

method-description: Drug concentration at steady state in human at 400 to 800 mg, po QD used as formulation with ritonavir measured after 24 hrs
Assay type: ADME, organism-based
measurement-context: in vivo, read-out: Css
measured-metric: concentration at 24 h (µM)
Use µM as the unit, but write only the number.

Q. Query concentration at 24 h for Cc1cccc(C)c1OCC(=O)N[C@@H](Cc1ccccc1)[C@@H](O)C[C@H](Cc1ccccc1)NC(=O)[C@H](C(C)C)N1CCCNC1=O
A. 6.6

* * *

study-system: ATP-binding cassette sub-family C member 4 (Homo sapiens, UniProt O15439)
Sequence (O15439 whole entry): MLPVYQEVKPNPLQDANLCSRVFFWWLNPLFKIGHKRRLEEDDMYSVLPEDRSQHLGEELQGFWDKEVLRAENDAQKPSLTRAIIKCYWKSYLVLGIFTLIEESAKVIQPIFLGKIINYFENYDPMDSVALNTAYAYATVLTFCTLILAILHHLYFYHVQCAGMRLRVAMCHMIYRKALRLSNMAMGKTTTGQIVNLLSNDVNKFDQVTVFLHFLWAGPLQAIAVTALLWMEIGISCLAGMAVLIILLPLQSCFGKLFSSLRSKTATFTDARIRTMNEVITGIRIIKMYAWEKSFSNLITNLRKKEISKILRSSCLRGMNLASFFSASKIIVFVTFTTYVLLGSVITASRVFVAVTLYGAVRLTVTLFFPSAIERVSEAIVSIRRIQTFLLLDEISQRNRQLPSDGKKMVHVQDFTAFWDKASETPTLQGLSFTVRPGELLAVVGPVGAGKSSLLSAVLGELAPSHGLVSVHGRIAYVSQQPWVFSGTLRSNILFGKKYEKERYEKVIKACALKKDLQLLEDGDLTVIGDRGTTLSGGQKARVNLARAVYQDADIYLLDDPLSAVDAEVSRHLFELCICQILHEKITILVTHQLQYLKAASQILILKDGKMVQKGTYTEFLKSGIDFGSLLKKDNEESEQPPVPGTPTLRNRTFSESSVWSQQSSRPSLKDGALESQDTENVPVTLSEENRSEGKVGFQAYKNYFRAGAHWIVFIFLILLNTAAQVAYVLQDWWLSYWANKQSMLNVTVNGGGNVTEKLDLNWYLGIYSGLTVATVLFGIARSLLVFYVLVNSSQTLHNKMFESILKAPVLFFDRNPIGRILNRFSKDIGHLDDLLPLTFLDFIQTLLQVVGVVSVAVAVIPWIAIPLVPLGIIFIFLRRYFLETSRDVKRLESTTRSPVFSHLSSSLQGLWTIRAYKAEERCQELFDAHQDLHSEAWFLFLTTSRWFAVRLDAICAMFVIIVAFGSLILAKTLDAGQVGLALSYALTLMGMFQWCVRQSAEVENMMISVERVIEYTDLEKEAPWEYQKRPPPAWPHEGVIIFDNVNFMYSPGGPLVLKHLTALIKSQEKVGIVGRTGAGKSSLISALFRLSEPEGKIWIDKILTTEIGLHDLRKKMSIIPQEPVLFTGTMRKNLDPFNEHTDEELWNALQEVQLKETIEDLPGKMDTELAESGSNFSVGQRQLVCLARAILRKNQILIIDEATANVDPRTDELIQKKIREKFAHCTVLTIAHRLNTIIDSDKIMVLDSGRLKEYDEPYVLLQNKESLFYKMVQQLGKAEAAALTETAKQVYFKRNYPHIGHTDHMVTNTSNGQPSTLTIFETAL
method-description: Inhibition of human MRP4 overexpressed in Sf9 cell membrane vesicles assessed as uptake of [3H]-estradiol-17beta-D-glucuronide in presence of ATP and GSH measured after 20 mins by membrane vesicle transport assay
measured-metric: IC50

>  <molecule>
CN(CCOc1ccc(NS(C)(=O)=O)cc1)CCc1ccc(NS(C)(=O)=O)cc1 [DOFETILIDE]

>  <reported-value>
> 133 µM

$$$$
>  <molecule>
CC(C)CN(C[C@@H](O)[C@H](Cc1ccccc1)NC(=O)O[C@H]1CCOC1)S(=O)(=O)c1ccc(N)cc1

>  <reported-value>
> 133 µM

$$$$
>  <molecule>
Cc1cn([C@H]2C[C@H](N=[N+]=[N-])[C@@H](CO)O2)c(=O)[nH]c1=O

>  <reported-value>
> 133 µM

$$$$

Q. Give a short answer stating reported IC50 for O=C(O)CCNC(=O)c1ccccc1 .
A. > 133 µM

Q. Consider the molecule CC(=O)CC(c1ccccc1)c1c(O)c2ccccc2oc1=O (centres undefined) [WARFARIN SODIUM] and give its recorded IC50.
A. > 133 µM

Q. Let me know recorded IC50 for N[C@@H](C(=O)N[C@@H]1C(=O)N2C(C(=O)O)=C(Cl)CS[C@H]12)c1ccccc1 [CEFACLOR ANHYDROUS] , thanks.
A. > 133 µM

Q. Return value of IC50 for input COC(=O)C1=C(C)NC(C)=C(C(=O)OCCN(C)Cc2ccccc2)C1c1cccc([N+](=O)[O-])c1 (centres undefined) , no commentary.
A. 88 µM

Q. Given CCC1(c2ccc(N)cc2)CCC(=O)NC1=O (centres undefined) [AMINOGLUTETHIMIDE] , respond with its IC50.
A. > 133 µM
